So I've got a bunch of substances here, and I need their amyloid nucleation score values.
# METHOD: amyloid nucleation score (Sup35N fusion, yeast selection) (log enrichment); library NNK1; higher = more nucleation; inactive = no reads after selection;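 note: zero at mode of non-aggregating sequences after 7 days selection at 30°C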
Number only, please.

Enquiry: Give reported amyloid nucleation score value for IWRWPRMESKSGYHSDFNST
Return: -1.32

Enquiry: Give reported amyloid nucleation score value for SISWVWAAPIRAI
Return: -1.59

Enquiry: Give reported amyloid nucleation score value for VMTWTLCRTRG
Return: -0.275

Enquiry: Give reported amyloid nucleation score value for TASHFGNKWV
Return: 0.352

Enquiry: Give reported amyloid nucleation score value for LMSYSECQLSLNAYRGGRVE
Return: 0.373

Enquiry: Give reported amyloid nucleation score value for IRVGGIWRGCCGVDLCYLTI
Return: -0.627

Enquiry: Give reported amyloid nucleation score value for MVDMILLGRNFINKRMLCLG
Return: 0.019

Enquiry: Give reported amyloid nucleation score value for YRKRYDWWTVEAVLASVFGS
Return: 1.18

Enquiry: Give reported amyloid nucleation score value for LAVRESIVQDKTWQDYE
Return: -0.102

Enquiry: Give reported amyloid nucleation score value for SLSFVVSGMRFAFAGFFMVS
Return: -0.055

Enquiry: Give reported amyloid nucleation score value for CYVKTYKIKSLRR
Return: -0.07

Enquiry: Give reported amyloid nucleation score value for ALSSWLLFGSTCQDSDCFKD
Return: 1.16

Enquiry: Give reported amyloid nucleation score value for YILPEAEHSKGC
Return: 0.803

Enquiry: Give reported amyloid nucleation score value for TIWFAF
Return: -0.128

Enquiry: Give reported amyloid nucleation score value for IVVGRC
Return: 0.144

Enquiry: Give reported amyloid nucleation score value for ISSKLLFSESSPSMSIQTHW
Return: 0.765

Enquiry: Give reported amyloid nucleation score value for RNSRICSFS
Return: 0.59

Enquiry: Give reported amyloid nucleation score value for MNVGCSVVWIKCLNACTSKQ
Return: 6.17

Enquiry: Give reported amyloid nucleation score value for WCSNVNFDVRVDNIKSFRWF
Return: 5.86

Enquiry: Give reported amyloid nucleation score value for VGFRGVLQIPGLSFPEALVR
Return: 0.024

Enquiry: Give reported amyloid nucleation score value for SAPENSWGAWLDYGELEVGW
Return: 0.016

Enquiry: Give reported amyloid nucleation score value for GPFASVFCAYGRVGVM
Return: 0.354

Enquiry: Give reported amyloid nucleation score value for YARIAKRTFLVYSQNEARFE
Return: 0.843

Enquiry: Give reported amyloid nucleation score value for DDGGLSFGSGNSQSSKKIWL
Return: 0.853

Enquiry: Give reported amyloid nucleation score value for LYKDGQGSKEAIVSRVDCMS
Return: 0.892

Enquiry: Give reported amyloid nucleation score value for LTEIVYTVGAEGTLWRSGAA
Return: 0.298

Enquiry: Give reported amyloid nucleation score value for MLHYSARGFRRHK
Return: 0.326

Enquiry: Give reported amyloid nucleation score value for SYDISYDFWVNLVAGRLTSM
Return: 1.24

Enquiry: Give reported amyloid nucleation score value for SRDRKVYLAYVYVYTRNVQT
Return: 0.683

Enquiry: Give reported amyloid nucleation score value for SAVGYISLLYNSWAKYTICN
Return: -0.562

Enquiry: Give reported amyloid nucleation score value for YDNRSALDWCLGEVMFAST
Return: -0.993

Enquiry: Give reported amyloid nucleation score value for RLWIVPLGLWCLRHRVCCRP
Return: -0.246

Enquiry: Give reported amyloid nucleation score value for SCHYDQPDQKLLASQSLL
Return: -1.02

Enquiry: Give reported amyloid nucleation score value for SSGYGECAFVT
Return: -0.055

Enquiry: Give reported amyloid nucleation score value for RSSKYVNHASQKNAHLRGCS
Return: 0.641

Enquiry: Give reported amyloid nucleation score value for SVPQLVPNHFRVSWANHS
Return: -0.05

Enquiry: Give reported amyloid nucleation score value for LLLSSLTDFHVVDRLIKQAW
Return: -0.003

Enquiry: Give reported amyloid nucleation score value for FPLSTQ
Return: 2.37

Enquiry: Give reported amyloid nucleation score value for RARCAVGS
Return: -0.396

Enquiry: Give reported amyloid nucleation score value for VYITVFMIAYMLLSDTDHE
Return: 0.377

Enquiry: Give reported amyloid nucleation score value for APPLSFEFL
Return: 3.06

Enquiry: Give reported amyloid nucleation score value for EVGNCFLESPGMVYVVGRDR
Return: 0.51

Enquiry: Give reported amyloid nucleation score value for LLQGCNEVPVRKSKVVSSVR
Return: 0.441

Enquiry: Give reported amyloid nucleation score value for LDLAFSFLHSTNIWTTFGLC
Return: -1.6

Enquiry: Give reported amyloid nucleation score value for KNAYHFRG
Return: 0.113

Enquiry: Give reported amyloid nucleation score value for PWYVIKV
Return: -0.055

Enquiry: Give reported amyloid nucleation score value for PVVPCYPRLKVCTGRRTAGA
Return: 0.684

Enquiry: Give reported amyloid nucleation score value for VRMKPCSLLNLGTYPAQNVM
Return: -0.888

Enquiry: Give reported amyloid nucleation score value for YIFSHDKGMRR
Return: 2.49

Enquiry: Give reported amyloid nucleation score value for KFNPLLITKFSAWECGLVVG
Return: -1.55

Enquiry: Give reported amyloid nucleation score value for RIWPQIVCDIDIRP
Return: -0.444

Enquiry: Give reported amyloid nucleation score value for LCDMAIDVFCLSCCK
Return: 6.65

Enquiry: Give reported amyloid nucleation score value for FMGFISACQRMIIIMYVFRT
Return: -0.126

Enquiry: Give reported amyloid nucleation score value for CYCNEKIVTMRAIDIVRFTC
Return: -0.556

Enquiry: Give reported amyloid nucleation score value for CHYLVLD
Return: -0.186

Enquiry: Give reported amyloid nucleation score value for TILVNKRR
Return: -1.28

Enquiry: Give reported amyloid nucleation score value for RFCLAVGLRMGYFLGCSDFR
Return: -0.45

Enquiry: Give reported amyloid nucleation score value for CSPVYIEFRLRQVFVARA
Return: 1.26

Enquiry: Give reported amyloid nucleation score value for SSFRLQALPVEFHGVNYHLA
Return: 0.182

Enquiry: Give reported amyloid nucleation score value for WRARLWDLNPWHVAREMIAG
Return: 0.096

Enquiry: Give reported amyloid nucleation score value for YFRIDAKTWFVSFPVALLPV
Return: -0.557

Enquiry: Give reported amyloid nucleation score value for DVFYVILNVSLVCSVPFLSA
Return: -0.179

Enquiry: Give reported amyloid nucleation score value for QRVSIRFSVPRGL
Return: 0.312

Enquiry: Give reported amyloid nucleation score value for TFYLFSRGSSLEIWG
Return: 5.72

Enquiry: Give reported amyloid nucleation score value for ANDKHLVLGWAQVVTQMDGR
Return: 0.731

Enquiry: Give reported amyloid nucleation score value for FCTHHWG
Return: -0.382

----------
# METHOD: amyloid nucleation score (Sup35N fusion, yeast selection) (log enrichment); library NNK2; higher = more nucleation; inactive = no reads after selection
Classification field: rule met = amyloid nucleation score at or over 0.4; rule not met = amyloid nucleation score under 0.4.

Enquiry: Is it the case that WCPLWITCMCLCSGLST has amyloid nucleation score reaching or exceeding 0.4?
Return: rule met

Enquiry: Is it the case that GLTLMSR has amyloid nucleation score reaching or exceeding 0.4?
Return: rule met

Enquiry: Is it the case that FGMSCWFLFFASQFSVTNNC has amyloid nucleation score reaching or exceeding 0.4?
Return: rule not met

Enquiry: Is it the case that NLALFCLVLMMEHQRFPCKA has amyloid nucleation score reaching or exceeding 0.4?
Return: rule met

Enquiry: Is it the case that YHVRIGSGRAVSLHV has amyloid nucleation score reaching or exceeding 0.4?
Return: rule not met

Enquiry: Is it the case that VNGTTGRSCNKNLDVFNSSI has amyloid nucleation score reaching or exceeding 0.4?
Return: rule not met

Enquiry: Is it the case that GTVGVGMS has amyloid nucleation score reaching or exceeding 0.4?
Return: rule met

Enquiry: Is it the case that NPGGMQDEQEVVIWAPTRFL has amyloid nucleation score reaching or exceeding 0.4?
Return: rule not met

----------
# METHOD: amyloid nucleation score (Sup35N fusion, yeast selection) (log enrichment); library NNK2; higher = more nucleation; inactive = no reads after selection
QUANTITY_NAME: amyloid nucleation score
Number only, please.

Enquiry: Give reported amyloid nucleation score value for RRVGTC
Return: -0.097

Enquiry: Give reported amyloid nucleation score value for VYKQVRNKVCSYLSLTERRW
Return: 0.654

Enquiry: Give reported amyloid nucleation score value for GSCRDLDLLLERHWRVVSNL
Return: 0.903

Enquiry: Give reported amyloid nucleation score value for LNIAMVASNGRSVAVRSSGG
Return: 0.113

Enquiry: Give reported amyloid nucleation score value for LGYFTLSFS
Return: 0.627

Enquiry: Give reported amyloid nucleation score value for VVWGERVHGIWLMCYCNWTG
Return: 5.51

Enquiry: Give reported amyloid nucleation score value for LRHCVYVYSATSRWIC
Return: 0.674

Enquiry: Give reported amyloid nucleation score value for MKVGLLD
Return: -0.49

Enquiry: Give reported amyloid nucleation score value for VGLCVLFRWLHKTWMMEWLG
Return: 0.426

Enquiry: Give reported amyloid nucleation score value for KSKLRCTFYSDAL
Return: -0.219

Enquiry: Give reported amyloid nucleation score value for RLKTDRLAMIPVRPKRFPGP
Return: 0.191

Enquiry: Give reported amyloid nucleation score value for VIILRTPYVCSHYWSDPTVL
Return: -0.138

Enquiry: Give reported amyloid nucleation score value for YLPPNKNWFFVWVDFSSWVF
Return: -0.627

Enquiry: Give reported amyloid nucleation score value for KKHIWGCMRYKMLTL
Return: -0.393
